molecular target: Acetylcholinesterase (Homo sapiens); assay: Non-competitive inhibition of recombinant human AChE expressed in HEK293 cells assessed as enzyme-substrate-inhibitor complex using varying levels of acetylthiocholine as substrate by Dixon plot analysis
Sequence (P22303 whole entry): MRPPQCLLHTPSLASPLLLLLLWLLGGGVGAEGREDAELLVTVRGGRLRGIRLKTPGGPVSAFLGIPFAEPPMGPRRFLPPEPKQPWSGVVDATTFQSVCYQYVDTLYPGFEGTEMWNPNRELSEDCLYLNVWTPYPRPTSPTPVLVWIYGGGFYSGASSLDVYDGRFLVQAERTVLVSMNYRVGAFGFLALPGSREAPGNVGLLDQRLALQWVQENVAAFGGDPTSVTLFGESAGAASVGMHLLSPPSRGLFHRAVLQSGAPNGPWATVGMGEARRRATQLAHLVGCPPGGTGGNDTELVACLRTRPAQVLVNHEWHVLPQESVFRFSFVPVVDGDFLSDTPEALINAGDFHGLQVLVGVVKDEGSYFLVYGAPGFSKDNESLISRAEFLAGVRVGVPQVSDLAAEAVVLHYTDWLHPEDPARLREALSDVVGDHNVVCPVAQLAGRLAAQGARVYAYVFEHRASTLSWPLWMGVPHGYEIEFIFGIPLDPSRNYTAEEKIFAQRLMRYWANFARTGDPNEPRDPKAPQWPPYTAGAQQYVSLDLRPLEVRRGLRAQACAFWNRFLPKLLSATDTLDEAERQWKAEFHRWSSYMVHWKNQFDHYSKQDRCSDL
Each entry below carries its recorded pKi.
Lab note — pKi values are minus log10 of concentrations in M.

1) Nc1c2c(nc3c1C(c1cccc(Br)c1)NC(=S)N3)CCCC2 (configuration not stated): 6.83

Turning to the following compound.
Data request, read-out pKi, for COc1cccc(C2NC(=S)Nc3nc4c(c(N)c32)CCCC4)c1 (configuration not stated)
5.41

###

Each entry below carries its recorded viability at 24 h, 300 µM.
assay: in vitro; conditions: human, HepG2 cells
Description: Cytotoxicity against human HepG2 cells assessed as cell viability at 300 uM after 24 hrs by CellTiter-Glo luminescence assay relative to control

# example entries with known answers
1) COc1cccc(C2NC(=S)Nc3nc4c(c(N)c32)CCCC4)c1 (stereo unspecified): 97.5%
2) COc1ccccc1C1NC(=S)Nc2nc3c(c(N)c21)CCCC3 (stereo unspecified): 68.1%
3) Nc1c2c(nc3c1C(c1ccc4c(c1)OCO4)NC(=S)N3)CCCC2 (stereo unspecified): 64.1%
4) Nc1c2c(nc3c1C(c1cccc([N+](=O)[O-])c1)NC(=S)N3)CCCC2 (stereo unspecified): 82.7%
5) CN(C)c1ccc(C2NC(=S)Nc3nc4c(c(N)c32)CCCC4)cc1 (stereo unspecified): 78.9%

Data request, read-out viability at 24 h, 300 µM, for Nc1c2c(nc3c1C(c1cccc(Br)c1)NC(=S)N3)CCCC2 (stereo unspecified)
62.3%

Cited source for all entries: ChEMBL document CHEMBL4152325
